- STUDY TARGET: kappa receptor (Mus musculus)
- Construct: Five CF-1 male mice (Charles River, Portage, Mich.); from tissue; host or cells: whole living CF-1 male mice (in vivo)
- Sequence (P33534 whole entry): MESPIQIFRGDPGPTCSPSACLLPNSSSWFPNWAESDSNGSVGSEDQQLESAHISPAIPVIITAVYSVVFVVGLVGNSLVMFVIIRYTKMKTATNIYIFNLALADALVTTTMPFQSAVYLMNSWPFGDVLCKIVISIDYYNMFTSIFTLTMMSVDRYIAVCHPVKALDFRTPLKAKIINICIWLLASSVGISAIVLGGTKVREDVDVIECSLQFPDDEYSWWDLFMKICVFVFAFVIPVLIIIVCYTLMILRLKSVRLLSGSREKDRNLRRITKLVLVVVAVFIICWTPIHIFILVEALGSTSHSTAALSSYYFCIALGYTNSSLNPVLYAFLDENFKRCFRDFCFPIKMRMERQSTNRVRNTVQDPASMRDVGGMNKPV
- TEST DETAILS: in vivo
- Design: species or system CF-1 male mice
- RECORDED CONDITIONS: sc, read-out: Kappa AD50
Structures can show the parent of a compound that is named as a salt.
VALUE KIND: ED50 (mg/kg)
Give the value in mg/kg but do not write mg/kg after it.

Let me know recorded ED50 for CC1CN(CCCC2CCCCC2)CCC1(C)c1cccc(O)c1 (stereo not drawn) [Example 11, hydrochloride] , thanks.
0.35

Entry CCCCCCCN1CCC(C)(c2cccc(O)c2)C(C)C1 (stereo not drawn) [Example 8, hydrochloride] needs its ED50 filled in; supply it.
0.64

Specify reported ED50 for the molecule shown: C[C@H]1CN(CCC(=O)c2ccccc2)CC[C@@]1(C)c1cccc(O)c1 (relative stereo) [Compound C, reference compound]
4.5
